Test: Dog pharmacokinetic study (intravenous and subcutaneous, 67 μg/kg)
Format: in vivo
Details: male, beagle, plasma, sc, 67 ug/kg; dog, subcutaneous 67 μg/kg, Tables 6B/6C (Table I footnote: 0.2 M Tris buffer pH 8.0); read-out: Cmax
Where a SMILES comes first, the peptide text is derived from it. [ ]: non-standard residue; d: D form. The star is where a group is joined. ξ: configuration not given here. Ala(6-(2-MePh)pyridin-3-yl) = Cc1ccccc1-c1ccc(C[C@H](N)C(=O)O)cn1; Bip(2'-Et-4'-OMe) = CCc1cc(OC)ccc1-c1ccc(C[C@H](N)C(=O)O)cc1; Lactoyl(3-(imidazol-4-yl)) = O=C([C@@H](O)Cc1c[nH]cn1)*; ξαMePhe(2-F) = CC(N)(Cc1ccccc1F)C(=O)O; ξαMeP = CC1(C(=O)O)CCCN1
readout_name: Cmax (nM)
// return numeric value only (unit: nM, not printed)

Lookup: Hello, please tell me recorded Cmax for this one: CCc1cc(OC)ccc1-c1ccc(C[C@H](NC(=O)[C@H](CC(=O)O)NC(=O)[C@H](Cc2c[nH]cn2)NC(=O)[C@@H](NC(=O)C(C)(Cc2ccccc2F)NC(=O)[C@@H](NC(=O)CNC(=O)[C@H](CCC(=O)O)NC(=O)C2(C)CCCN2C(=O)[C@@H](O)Cc2c[nH]cn2)[C@@H](C)O)[C@@H](C)O)C(=O)N[C@@H](Cc2ccc(-c3ccccc3C)nc2)C(N)=O)cc1 (stereo partly shown) [SEQ ID NO: 151] ({Lactoyl(3-(imidazol-4-yl))}-[ξαMeP]EGT[ξαMePhe(2-F)]THD[Bip(2'-Et-4'-OMe)][Ala(6-(2-MePh)pyridin-3-yl)]-NH2)
Found: 252

----------
Experiment: Exposure during ipGTT in ob/ob mice
Type: in vivo, mouse
Settings: sc
Where a SMILES comes first, the peptide text is derived from it. [ ]: non-standard residue; d: D form. The star is where a group is joined. ξ: configuration not given here. Ala(6-(2-MePh)pyridin-3-yl) = Cc1ccccc1-c1ccc(C[C@H](N)C(=O)O)cn1; Bip(2'-Et-4'-OMe) = CCc1cc(OC)ccc1-c1ccc(C[C@H](N)C(=O)O)cc1; Lactoyl(3-(imidazol-4-yl)) = O=C([C@@H](O)Cc1c[nH]cn1)*; αMePhe(2-F) = C[C@](N)(Cc1ccccc1F)C(=O)O; ξαMePhe(2-F) = CC(N)(Cc1ccccc1F)C(=O)O; ξαMeP = CC1(C(=O)O)CCCN1; Aib = CC(C)(N)C(=O)O
readout_name: Exposure/dose during ipGTT in ob/ob mice (nM*h/nmol/kg)
// return numeric value only (unit: nM*h/nmol/kg, not printed)

Below, 2 molecules whose answers are already recorded.
CCc1cc(OC)ccc1-c1ccc(C[C@H](NC(=O)[C@H](CC(=O)O)NC(=O)[C@H](Cc2c[nH]cn2)NC(=O)[C@@H](NC(=O)C(C)(Cc2ccccc2F)NC(=O)[C@@H](NC(=O)CNC(=O)[C@H](CCC(=O)O)NC(=O)C2(C)CCCN2C(=O)[C@@H](O)Cc2c[nH]cn2)[C@@H](C)O)[C@@H](C)O)C(=O)N[C@@H](Cc2ccc(-c3ccccc3C)nc2)C(N)=O)cc1 (stereo partly drawn) [SEQ ID NO: 151] ({Lactoyl(3-(imidazol-4-yl))}-[ξαMeP]EGT[ξαMePhe(2-F)]THD[Bip(2'-Et-4'-OMe)][Ala(6-(2-MePh)pyridin-3-yl)]-NH2) ... 16
CCc1cc(OC)ccc1-c1ccc(C[C@H](NC(=O)[C@H](CC(=O)O)NC(=O)[C@H](CO)NC(=O)[C@@H](NC(=O)[C@](C)(Cc2ccccc2F)NC(=O)[C@@H](NC(=O)CNC(=O)[C@H](CCC(=O)O)NC(=O)C(C)(C)NC(=O)[C@@H](N)Cc2c[nH]cn2)[C@@H](C)O)[C@@H](C)O)C(=O)N[C@@H](Cc2ccc(-c3ccccc3C)nc2)C(N)=O)cc1 [SEQ ID NO: 9] (H-H[Aib]EGT[αMePhe(2-F)]TSD[Bip(2'-Et-4'-OMe)][Ala(6-(2-MePh)pyridin-3-yl)]-NH2) ... 18

Lookup: Hello, please tell me recorded Exposure/dose during ipGTT in ob/ob mice for this one: CCc1cc(OC)ccc1-c1ccc(C[C@H](NC(=O)[C@H](CC(=O)O)NC(=O)[C@H](CO)NC(=O)[C@@H](NC(=O)C(C)(Cc2ccccc2F)NC(=O)[C@@H](NC(=O)CNC(=O)[C@H](CCC(=O)O)NC(=O)C2(C)CCCN2C(=O)[C@@H](N)Cc2c[nH]cn2)[C@@H](C)O)[C@@H](C)O)C(=O)N[C@@H](Cc2ccc(-c3ccccc3C)nc2)C(N)=O)cc1 (stereo partly drawn) [SEQ ID NO: 118] (H-H[ξαMeP]EGT[ξαMePhe(2-F)]TSD[Bip(2'-Et-4'-OMe)][Ala(6-(2-MePh)pyridin-3-yl)]-NH2)
Found: 4.4
